# tested-on: RORγt (hRORC LBD) (Homo sapiens, UniProt P51449)
# Sequence (P51449 269-508 limits assumed): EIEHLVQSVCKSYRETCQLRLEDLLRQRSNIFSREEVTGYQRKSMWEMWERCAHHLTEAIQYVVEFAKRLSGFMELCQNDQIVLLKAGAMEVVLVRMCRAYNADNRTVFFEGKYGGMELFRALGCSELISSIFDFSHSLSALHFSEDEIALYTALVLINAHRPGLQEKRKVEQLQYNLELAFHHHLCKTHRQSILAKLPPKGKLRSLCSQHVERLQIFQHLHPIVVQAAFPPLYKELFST
# procedure-summary: RGA Assay: nuclear receptor transactivation assay, RORγt transactivation of a luciferase reporter
# experimental-parameters: transiently transfected HEK 293 cells, Gal4DBD hRORC LBD, 20-24 hours incubation
pIC50: −log10 of the molar value.
Output Yes for pIC50 not less than 6; output No otherwise.

Some solved entries appear below for comparison.
INSERT INTO assay_data (compound, tested_on, classification) VALUES
  ('CNS(=O)(=O)c1ccc(CNC(=O)N2CC3(CCCC3)c3cc(-c4cc(C)c(OC)cc4C)ccc32)cc1 [Example 83]', 'RORγt (hRORC LBD) (Homo sapiens, UniProt P51449)', 'Yes'),
  ('CCc1ccccc1-c1ccc2c(c1)C1(CCCC1)CN2C(=O)NCc1ccc(S(=O)(=O)NC)cc1 [Example 9]', 'RORγt (hRORC LBD) (Homo sapiens, UniProt P51449)', 'Yes'),
  ('CNS(=O)(=O)c1ccc(CNC(=O)N2CC3(CCCC3)c3cc(-c4ccc(O)cc4C(F)(F)F)ccc32)cc1 [Example 56]', 'RORγt (hRORC LBD) (Homo sapiens, UniProt P51449)', 'Yes'),
  ('CCS(=O)(=O)c1ccc(CNC(=O)N2CC3(CCC3)c3cc(-c4c(OC)ncnc4C4CC4)ccc32)nc1 [Example 129]', 'RORγt (hRORC LBD) (Homo sapiens, UniProt P51449)', 'Yes'),
  ('CNS(=O)(=O)c1ccc(CNC(=O)N2CC3(CCCC3)c3cc(-c4cc(CN5CCC(O)C5)ccc4C)ccc32)cc1 (centres unmarked) [Example 103]', 'RORγt (hRORC LBD) (Homo sapiens, UniProt P51449)', 'No'),
  ('CNS(=O)(=O)c1ccc(CNC(=O)N2CC3(CCCC3)c3cc(-c4ccc(OC)nc4C)ccc32)cc1 [Example 68]', 'RORγt (hRORC LBD) (Homo sapiens, UniProt P51449)', 'No'),
  ('COc1ccc(-c2ccc3c(c2)C2(CCCC2)CN3C(=O)NCc2ccc(S(C)(=O)=O)cc2OC)c(C(F)(F)F)c1 [Example 105]', 'RORγt (hRORC LBD) (Homo sapiens, UniProt P51449)', 'Yes'),
  ('CNS(=O)(=O)c1ccc(CNC(=O)N2CC3(CCCC3)c3cc(-c4ccccc4OC(F)(F)F)ccc32)cc1 [Example 73]', 'RORγt (hRORC LBD) (Homo sapiens, UniProt P51449)', 'Yes'),
  ('CCS(=O)(=O)c1ccc(CNC(=O)N2CC(C)(C3CC3)c3cc(-c4cncnc4C(C)C)ccc32)cc1 (centres unmarked) [Example 113]', 'RORγt (hRORC LBD) (Homo sapiens, UniProt P51449)', 'Yes'),
  ('CNS(=O)(=O)c1ccc(CNC(=O)N2CC3(CCCC3)c3cc(-c4c(F)cccc4C(F)(F)F)ccc32)cc1 [Example 75]', 'RORγt (hRORC LBD) (Homo sapiens, UniProt P51449)', 'Yes');

Below: the item to evaluate.
Decide: is the reported value of pIC50 for CNS(=O)(=O)c1ccc(CNC(=O)N2CC3(CCCC3)c3cc(-c4ccc(F)cc4C(F)(F)F)ccc32)cc1 [Example 8] equal to or greater than 6?
Yes
